From: patent US8802597B2

Test system: crabgrass (Digitaria sanguinalis)
Measurement Description: Test A pre/postemergence
Assay type: in vivo
Recorded Conditions: Postemergence, 125 g ai/ha; 0 to 100 scale (0 no effect, 100 complete control)
Kindly supply the reported Plant response rating, Crabgrass values for the records listed here.
Numbers only.

Molecule: COC(=O)c1nc(-c2ccc([S+](C)[O-])cc2)nc(N)c1Cl (centres unmarked)
Plant response rating, Crabgrass: 0
--
Molecule: COCCOCCOC(=O)c1nc(C2CC2)nc(N)c1Cl
Plant response rating, Crabgrass: 25
--
Molecule: CC(C)=NOC(=O)c1nc(C2CC2)nc(N)c1Cl
Plant response rating, Crabgrass: 20

Hey, can you go through the list below and give me Plant response rating, Crabgrass for every item?
1. CCOC(=O)c1nc(-c2ccc(Cl)cc2F)nc(N)c1Br
2. Nc1nc(C2CC2)nc(C(=O)OCC2CCCO2)c1Cl (centres unmarked)

// result
1. 20
2. 65

* * *

Tested on: barnyardgrass (Echinochloa crus-galli)
Measurement Description: Test A pre/postemergence
Type: in vivo
Recorded Conditions: Postemergence, 125 g ai/ha; 0 to 100 scale (0 no effect, 100 complete control)
Kindly supply the reported Plant response rating, Barnyardgrass values for the records listed here.
One number for each entry.

Chemical Smiles: COC(=O)c1nc(-c2ccc(I)cc2)nc(N)c1Br
Plant response rating, Barnyardgrass: 0
--
Chemical Smiles: CCOC(=O)c1nc(-c2ccc(Cl)cc2)nc(N)c1I
Plant response rating, Barnyardgrass: 0
--
Chemical Smiles: CCOC(=O)c1nc(-c2ccc(Cl)cc2F)nc(N)c1Br
Plant response rating, Barnyardgrass: 0

Hey, can you go through the list below and give me Plant response rating, Barnyardgrass for every item?
1. CCOC(=O)COc1nc(-c2ccc(Cl)cc2)nc(N)c1Cl
2. CC(C)c1nc(N)c(Cl)c(C(=O)[O-])n1.[Na+]
3. COCCOCCOC(=O)c1nc(C2CC2)nc(N)c1Cl
4. CCOC(=O)c1nc(-c2ccc(Cl)c(Cl)c2)nc(N)c1Cl
5. CCCCOCCOC(=O)c1nc(C2CC2)nc(N)c1Cl
6. Nc1nc(C2CC2)nc(C(=O)OCCCOC(=O)c2nc(C3CC3)nc(N)c2Cl)c1Cl

// result
1. 0
2. 0
3. 80
4. 0
5. 80
6. 45

Hey, can you go through the list below and give me Plant response rating, Barnyardgrass for every item?
1. COC(=O)c1nc(-c2ccc(Cl)cc2)nc(N)c1Br
2. CCOC(=O)c1nc(-c2ccc(C)cc2)nc(N)c1Cl
3. CCOC(=O)c1nc(-c2ccc(Cl)c(Cl)c2)nc(N)c1Br
4. COC(=O)COc1nc(-c2ccc(Cl)cc2)nc(N)c1Cl
5. CCOC(=O)c1nc(-c2ccccc2F)nc(N)c1Cl
6. COC(=O)c1nc(-c2ccc(C)cc2)nc(N)c1Cl

// result
1: 0; 2: 15; 3: 0; 4: 0; 5: 0; 6: 55

Hey, can you go through the list below and give me Plant response rating, Barnyardgrass for every item?
1. Cc1ccc(-c2nc(N)c(Cl)c(C(=O)O)n2)cc1F
2. COC(=O)COC(=O)c1nc(C2CC2)nc(N)c1Cl

// result
1. 50
2. 68

Hey, can you go through the list below and give me Plant response rating, Barnyardgrass for every item?
1. COC(=O)c1nc(-c2cccc(C)c2)nc(N)c1Cl
2. Cc1ccc(-c2nc(N)c(Cl)c(C(=O)O)n2)cc1
3. CCOC(=O)COc1nc(C2CC2)nc(N)c1Cl
4. CCOC(=O)c1nc(-c2ccc(C(F)(F)F)cc2)nc(N)c1Br
5. CS(=O)(=O)NC(=O)c1nc(-c2ccc(Cl)cc2)nc(N)c1Cl
6. CCOC(=O)c1nc(-c2ccc(I)cc2)nc(N)c1Cl
7. Nc1nc(-c2ccc(F)cc2)nc(C(=O)O)c1Br

// result
1. 30
2. 75
3. 0
4. 0
5. 10
6. 10
7. 0
